System: DeltatarO mutant
TEST_PROTOCOL: S. aureus survival, RN4220 and DeltatarO strains – OD600, teichoic acid synthesis inhibitors, primary screen (AID 463173)
TEST_PARAMETERS: S. aureus RN4220 wild type/DeltatarO growth, OD600, 18 h, screened at 18.75 µg/mL (by protocol)
Out of some 52,000 compounds screened, about 4,300 (8.3%) were called active. Cut-off read from the data, not from the text of the source: active = survival mostly below about 52% (no sharp cut-off); inactive = mostly above about 56%. The list comes from a sample in which actives are over-represented; it also holds close analogues and randomly drawn compounds.
Give one outcome, nothing more. List: true (active), false (inactive)

Ask | In this assay, the call recorded for COc1cc(NC(=O)CN2CCN(CC(=O)Nc3ccc(F)cc3)CC2)cc(OC)c1 was what?
Reply | false

Ask | Hi team, can someone confirm the assay call for Cc1ccc(C)c(Cn2c(=O)n(-c3ccccc3)c(=O)c3c4c(sc32)CCCC4)c1 ?
Reply | false

Ask | Returns: the outcome recorded for CCc1nc2cccnc2n1-c1ccc(CC(=O)Nc2cccc(C)c2C)cc1 in this assay.
Reply | false

Ask | Hey, what did the test say about CCOc1ccc2[nH]c(=O)c(CN(CC3CCCO3)C(=O)N(CC)CC)cc2c1 (stereo not given) ?
Reply | false

Ask | Hey, what did the test say about CCOc1ccc(S(=O)(=O)Nc2ccc(OC)c(Cl)c2)c2cccnc12 ?
Reply | false

Ask | Could you check what this test reported for Cc1ccc(-n2nc(C)c(C(=O)NCCCN3CCN(c4cccc(Cl)c4)CC3)c2-n2cccc2)cc1 ?
Reply | true

Ask | Identify the outcome logged in this assay for the compound shown: COc1ccc(N2CCN(S(C)(=O)=O)CC2)cc1
Reply | false

Ask | // param item: CC(C)NC(=O)C1CCC(Cn2c(=O)c3sccc3n(CC(=O)Nc3ccccc3)c2=O)CC1 (stereo not given) ; yields the recorded call
Reply | false

Ask | # outcome recorded in this test, key = COc1ccc(CNc2ccc(C)c(C)c2)c(OC)c1OC
Reply | false

Ask | I'd appreciate the recorded outcome for O=C(NCCCN1CCN(c2cccc(Cl)c2)CC1)c1cnn(-c2ccc(F)cc2)c1-n1cccc1 from this test.
Reply | true
